Measured values drawn from PubChem BioAssay (NCI) for this set.

Entries and their TGI values follow.
- Tested on: EKVX NSCLC
- ASSAY OVERVIEW: NCI tumour cell line growth inhibition, 48 h

Some entries whose results are on file:
• CC(C)CNC(=O)c1c(NC(=O)c2ccccc2)sc2[nH]c(=O)n(-c3ccccc3)c(=O)c12 = > 100 µM
• CC(=O)Nc1c(I)c(C(=O)O)c(I)c(N(C)C(C)=O)c1I = > 100 µM
• O=C1CC(NC2CC(=O)c3c(Br)sc(Br)c32)c2c(Br)sc(Br)c21 (centres undefined) = 22.7 µM

Q: Please report the recorded TGI for CC(=O)n1cc(CC(C)O)c(=O)[nH]c1=O (centres undefined) .
A: > 100 µM
